# assayed.target: UniProt:P02769
# Sequence (P02769 whole entry): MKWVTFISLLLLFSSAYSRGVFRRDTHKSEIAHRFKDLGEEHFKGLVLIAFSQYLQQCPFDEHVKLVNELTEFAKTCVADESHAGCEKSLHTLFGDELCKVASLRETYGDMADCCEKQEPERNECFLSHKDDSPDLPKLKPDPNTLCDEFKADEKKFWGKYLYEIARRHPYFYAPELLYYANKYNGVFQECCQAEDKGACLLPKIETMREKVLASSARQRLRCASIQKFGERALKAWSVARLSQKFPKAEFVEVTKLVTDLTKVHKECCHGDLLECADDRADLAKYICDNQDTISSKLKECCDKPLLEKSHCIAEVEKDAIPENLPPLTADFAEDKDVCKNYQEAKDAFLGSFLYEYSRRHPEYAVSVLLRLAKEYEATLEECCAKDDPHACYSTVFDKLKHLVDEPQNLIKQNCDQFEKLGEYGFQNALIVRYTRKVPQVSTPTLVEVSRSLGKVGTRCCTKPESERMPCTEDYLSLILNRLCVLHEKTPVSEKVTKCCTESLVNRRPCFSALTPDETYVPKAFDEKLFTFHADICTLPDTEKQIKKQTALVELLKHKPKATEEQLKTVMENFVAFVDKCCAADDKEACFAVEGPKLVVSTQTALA
# test.summary: Binding affinity to bovine serum albumin
# condition.notes: cattle, isolated protein
yes means recorded log K is 4 or above; no means it is below 4.

These recorded examples may help you get a feel for the data.
{"columns": ["compound", "assayed.target", "assigned.label"],
 "data": [
  ["CCCCCCCCCCCC[N+](C)(C)Cc1ccccc1.[Cl-] [BENZODODECINIUM CHLORIDE]", "UniProt:P02769", "yes"],
  ["CCCCCCCC[N+](C)(C)Cc1ccccc1.[Cl-]", "UniProt:P02769", "yes"],
  ["CCCCCCCCCCC[N+](C)(C)Cc1ccccc1.[Cl-]", "UniProt:P02769", "yes"],
  ["CCCCCCCCCCCCCCCCC[N+](C)(C)Cc1ccccc1.[Cl-]", "UniProt:P02769", "no"]
]}

Hi team, for CCCCCCCCCCCCCCCC[N+](C)(C)Cc1ccccc1.[Cl-] [CETALKONIUM CHLORIDE] , is the recorded log K at or above 4? no

Threshold query (log K >= 4) on CCCCCCCCCCCCC[N+](C)(C)Cc1ccccc1.[Cl-] [BENZALKONIUM CHLORIDE] no

Is it the case that CCCCCCCCCCCCCCC[N+](C)(C)Cc1ccccc1.[Cl-] has log K reaching or exceeding 4? no

Does CCCCCCCCCCCCCC[N+](C)(C)Cc1ccccc1.[Cl-] [MIRISTALKONIUM CHLORIDE] have a reported log K of at least 4? no

Decide: is the reported value of log K for CCCCCCCCCC[N+](C)(C)Cc1ccccc1.[Cl-] equal to or greater than 4? yes

----------
Exercise: state measured log1/CMC for each of the compounds provided.
# test.summary: Critical micelle concentration of the compound
# Type: ADME
Give bare numbers.

{"columns": ["compound", "log1/CMC"],
 "data": [
  ["CCCCCCCCCCCCCCCCCC[N+](C)(C)Cc1ccccc1.[Cl-]", 4.48],
  ["CCCCCCCCCC[N+](C)(C)Cc1ccccc1.[Cl-]", 1.47],
  ["CCCCCCCCCCCCCCC[N+](C)(C)Cc1ccccc1.[Cl-]", 3.22],
  ["CCCCCCCCCCCCC[N+](C)(C)Cc1ccccc1.[Cl-] [BENZALKONIUM CHLORIDE]", 2.57],
  ["CCCCCCCC[N+](C)(C)Cc1ccccc1.[Cl-]", 0.67]
]}

Dear colleague, could you send me log1/CMC for each of the items below? Thanks.
1. CCCCCCCCCCCCCCCCCCC[N+](C)(C)Cc1ccccc1.[Cl-]
2. CCCCCCCCCCC[N+](C)(C)Cc1ccccc1.[Cl-]
3. CCCCCCCCCCCC[N+](C)(C)Cc1ccccc1.[Cl-] [BENZODODECINIUM CHLORIDE]
4. CCCCCCCCCCCCCCCC[N+](C)(C)Cc1ccccc1.[Cl-] [CETALKONIUM CHLORIDE]
5. CCCCCCCCCCCCCC[N+](C)(C)Cc1ccccc1.[Cl-] [MIRISTALKONIUM CHLORIDE]
6. CCCCCCCCCCCCCCCCC[N+](C)(C)Cc1ccccc1.[Cl-]

1: 4.74; 2: 1.85; 3: 2.16; 4: 3.62; 5: 2.92; 6: 4

----------
# test.summary: 1-Octanol-water partition coefficient, log P of the compound
# Format: physicochemical
measurement.label: logP
Answers are plain numbers.

{"columns": ["mol", "logP"],
 "data": [
  ["CCCCCC[N+](C)(C)Cc1ccccc1", -1.53],
  ["CCCCCCCC[N+](C)(C)Cc1ccccc1", -0.29]
]}

List the reported logP of each compound below.
1. CCCC[N+](C)(C)Cc1ccccc1
2. CC[N+](C)(C)Cc1ccccc1

1: -1.85; 2: -3.38
